Molecular target: Multidrug resistance-associated protein 1 (Homo sapiens)
Sequence (P33527 whole entry): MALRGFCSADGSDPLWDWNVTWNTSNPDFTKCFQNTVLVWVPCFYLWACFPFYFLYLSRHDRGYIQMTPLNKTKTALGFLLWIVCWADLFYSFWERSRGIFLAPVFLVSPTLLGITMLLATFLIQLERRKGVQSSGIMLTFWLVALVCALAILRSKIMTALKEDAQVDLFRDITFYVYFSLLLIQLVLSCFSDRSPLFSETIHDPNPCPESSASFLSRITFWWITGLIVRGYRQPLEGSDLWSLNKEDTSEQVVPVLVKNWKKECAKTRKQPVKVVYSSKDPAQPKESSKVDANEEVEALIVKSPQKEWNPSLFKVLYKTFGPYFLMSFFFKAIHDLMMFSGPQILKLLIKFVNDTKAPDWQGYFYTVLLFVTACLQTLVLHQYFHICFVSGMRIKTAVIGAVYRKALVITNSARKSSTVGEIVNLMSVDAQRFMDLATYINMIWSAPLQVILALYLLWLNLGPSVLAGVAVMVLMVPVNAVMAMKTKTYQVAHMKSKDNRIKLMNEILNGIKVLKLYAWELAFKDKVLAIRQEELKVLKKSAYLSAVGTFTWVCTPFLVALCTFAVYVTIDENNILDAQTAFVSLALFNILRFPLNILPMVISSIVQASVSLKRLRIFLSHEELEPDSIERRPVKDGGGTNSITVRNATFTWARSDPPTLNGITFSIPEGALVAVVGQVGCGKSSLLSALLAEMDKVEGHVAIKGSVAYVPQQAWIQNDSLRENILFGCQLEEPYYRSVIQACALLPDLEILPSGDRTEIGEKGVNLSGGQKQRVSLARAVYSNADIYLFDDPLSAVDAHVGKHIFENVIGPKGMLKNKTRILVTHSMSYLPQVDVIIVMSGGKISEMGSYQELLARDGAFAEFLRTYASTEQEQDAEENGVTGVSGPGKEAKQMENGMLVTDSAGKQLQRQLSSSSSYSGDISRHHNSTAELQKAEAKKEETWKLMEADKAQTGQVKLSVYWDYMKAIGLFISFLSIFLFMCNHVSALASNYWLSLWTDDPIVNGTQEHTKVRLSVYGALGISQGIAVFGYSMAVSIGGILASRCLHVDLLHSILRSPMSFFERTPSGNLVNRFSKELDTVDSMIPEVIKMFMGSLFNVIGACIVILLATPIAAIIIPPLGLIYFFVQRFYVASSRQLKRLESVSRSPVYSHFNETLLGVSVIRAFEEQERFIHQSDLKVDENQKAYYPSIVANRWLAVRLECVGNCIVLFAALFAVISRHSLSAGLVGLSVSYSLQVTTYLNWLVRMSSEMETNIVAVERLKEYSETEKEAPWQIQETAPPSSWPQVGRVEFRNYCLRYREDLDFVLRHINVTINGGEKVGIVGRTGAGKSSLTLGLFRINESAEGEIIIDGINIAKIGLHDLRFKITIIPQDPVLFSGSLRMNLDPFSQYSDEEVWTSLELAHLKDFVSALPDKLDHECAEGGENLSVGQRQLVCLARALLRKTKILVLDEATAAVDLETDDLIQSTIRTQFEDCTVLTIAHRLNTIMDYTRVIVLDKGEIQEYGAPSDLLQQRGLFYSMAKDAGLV
Experiment: Inhibitory activity against human transporter MRP1 (Multidrug resistance associated protein 1) expressed in COR.L23/R cell line
pIC50: −log10 of the molar value.
Below: a set of entries, each annotated with reported pIC50.
property-label: pIC50

- sample-smiles: "Cc1nc(-c2c3n(c4c(N5CCN(CCc6ccccc6)CC5)ncnc24)CCCC3)sc1C"
  measured-result: 6.27
- sample-smiles: "N#Cc1c2n(c3c(N4CCN(CCCc5ccccc5)CC4)ncnc13)CCCC2"
  measured-result: 5.13
- sample-smiles: "CC(=O)Nc1ccc(-c2nc(N3CCN(CCc4ccccc4)CC3)c3c(n2)c(C#N)c2n3CCCC2)cc1"
  measured-result: 6.24
- sample-smiles: "N#Cc1c2n(c3c(NS(=O)(=O)Cc4ccccc4)ncnc13)CCCC2"
  measured-result: 4.68
- sample-smiles: "N#Cc1c2n(c3c(N4CCN(CCc5ccccc5)CC4)ncnc13)CCCC2"
  measured-result: 6.16

---

Measured IC50 (ATP-dependent translocase ABCB1 (Mus musculus, UniProt P06795))

- sample-smiles: "N#Cc1c2n(c3c(N4CCN(CCc5ccccc5[N+](=O)[O-])CC4)ncnc13)CCCC2"
  IC50: "> 50 µM"
- sample-smiles: "N#Cc1c2n(c3c(NCCN4CCc5ccccc5C4)ncnc13)CCCC2"
  IC50: "> 50 µM"
- sample-smiles: "N#Cc1c2n(c3c(N4CCN(CCc5ccc([N+](=O)[O-])cc5)CC4)ncnc13)CCCC2"
  IC50: "12.9 µM"
- sample-smiles: "N#Cc1c2n(c3c(N4CCN(CC(=O)c5ccccc5)CC4)ncnc13)CCCC2"
  IC50: "23 µM"
- sample-smiles: "CCNC(=O)c1c2n(c3c(N4CCN(CCc5ccc(F)c(F)c5)CC4)ncnc13)CCCC2"
  IC50: "4.79 µM"
- sample-smiles: "O=C(c1ccccc1)c1c2n(c3c(N4CCN(CCc5ccccc5)CC4)ncnc13)CCCC2"
  IC50: "10.7 µM"
- sample-smiles: "NC(=O)c1c2n(c3c(N4CCN(CCc5ccc(F)c(F)c5)CC4)ncnc13)CCCC2"
  IC50: "> 50 µM"
- sample-smiles: "c1ccc(CCN2CCN(c3ncnc4c(-c5ncccn5)c5n(c34)CCCC5)CC2)cc1"
  IC50: "> 50 µM"
- sample-smiles: "COc1cccc(CCN2CCN(c3ncnc4c(C#N)c5n(c34)CCCC5)CC2)c1"
  IC50: "16.2 µM"

Origin of measurements: ChEMBL document CHEMBL1149092
